target: T1, pm1 (sulfated tyrosine(s) among Y15, Y16, Y17; which ones is not told (the underlining of Table 1 is lost in the text)); assay: ELISA on coated peptide [cont.]
T1 construct: also called sulfated CCR8 N-terminal peptide pm1
T1 sequence (peptide, as listed by the source): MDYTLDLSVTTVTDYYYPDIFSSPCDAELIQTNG
quantity: binding result

binder | reported value
anti-CCR8 mAb 1-24 (antibody, human IgG1, kappa, V domains shown, Humanized mAb, human IgG1 / kappa) VH: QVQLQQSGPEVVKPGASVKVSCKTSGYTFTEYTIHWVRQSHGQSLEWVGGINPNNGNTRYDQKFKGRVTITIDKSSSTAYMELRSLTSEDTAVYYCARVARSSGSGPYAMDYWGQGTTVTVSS VL: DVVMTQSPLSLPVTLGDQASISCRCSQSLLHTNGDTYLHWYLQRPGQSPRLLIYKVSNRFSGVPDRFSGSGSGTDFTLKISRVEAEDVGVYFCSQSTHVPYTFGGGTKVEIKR | binds
anti-CCR8 mAb 1-22 (antibody, human IgG1, kappa, V domains shown, Humanized mAb, human IgG1 / kappa) VH: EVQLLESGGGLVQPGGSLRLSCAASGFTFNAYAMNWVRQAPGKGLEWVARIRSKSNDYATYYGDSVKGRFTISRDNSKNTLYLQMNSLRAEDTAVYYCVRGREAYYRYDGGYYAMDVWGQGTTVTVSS VL: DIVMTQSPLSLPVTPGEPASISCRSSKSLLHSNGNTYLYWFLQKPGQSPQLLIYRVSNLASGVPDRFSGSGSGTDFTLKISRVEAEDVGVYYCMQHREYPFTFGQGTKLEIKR | binds
anti-CCR8 mAb 1-3 (antibody, V domains shown, Murine hybridoma mAb) VH: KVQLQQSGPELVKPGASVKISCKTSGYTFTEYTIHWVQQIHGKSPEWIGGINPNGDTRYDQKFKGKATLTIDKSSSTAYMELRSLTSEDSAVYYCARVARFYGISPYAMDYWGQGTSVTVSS VL: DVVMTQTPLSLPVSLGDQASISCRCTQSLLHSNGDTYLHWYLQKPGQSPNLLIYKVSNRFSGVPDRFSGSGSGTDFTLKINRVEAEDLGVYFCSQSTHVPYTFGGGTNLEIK | binds

These measurements were taken from patent US20260132208A1.
